method: in vitro
Set-up: Viability of infected HeLa host cells, resazurin conversion, bulk resorufin fluorescence relative to DMSO
condition_notes: human, hela cells; bulk resorufin, mean of 2
Listed below: viability at 28.5 h, 1 µM values for each entry.
Please give a number only; it is taken to be in %.

Would you please look over these solved cases?
{"columns": ["compound", "viability at 28.5 h, 1 µM (%)"],
 "data": [
  ["CC(=O)NC[C@H]1CN(c2ccc3c(c2)CCN(C(=O)Cc2ccccc2)CC3)C(=O)O1", 92.9],
  ["O=C(NCCNCCNC(=O)C1(c2ccccc2)CCCC1)C1(c2ccccc2)CCCC1", 91.6],
  ["OC(COc1ccc(Br)cc1)CN1CCCN(c2nc3ccc(Cl)cc3s2)CC1 (stereo not drawn)", 86.1],
  ["CCNC(=O)N1CC2(CCN(Cc3nc4ccccc4[nH]3)CC2)c2ccccc21", 100],
  ["Clc1ccc2nc(-c3ccccn3)[nH]c2c1", 111]
]}

The value of viability at 28.5 h, 1 µM measured for the compound CN(C)c1ccc(Nc2nc(NCCO)c3ccccc3n2)cc1 [CBK268392C] turned out to be 95.3

The value of viability at 28.5 h, 1 µM measured for the compound CCc1cc(Br)ccc1S(=O)(=O)NC(CC)COC (stereo not drawn) turned out to be 100

The value of viability at 28.5 h, 1 µM measured for the compound Cc1ccccc1Nc1nc(N)nc(CN2CCCC(C(F)(F)F)C2)n1 (stereo not drawn) turned out to be 96.6

The value of viability at 28.5 h, 1 µM measured for the compound C1=C(CCNCCc2ccccc2)c2ccccc2C12CCCC2 turned out to be 96.5

----------
System: CTL2-GFP (C. trachomatis L2/434/Bu, GFP-expressing)
Construct: L2/434/Bu, GFP-expressing
method: microbe, parasite or virus in culture
Parameters: Intracellular C. trachomatis growth in HeLa cells, bulk GFP fluorescence relative to DMSO
condition_notes: Chlamydia trachomatis, HeLa, 28.5 h; bulk GFP, mean of 2; read-out: % of control remaining
Please respond with Condition met when measured activity at 1 µM is strictly beneath 90%, and with Condition not met in all other cases.

{"columns": ["molecule", "target", "label"],
 "data": [
  ["O=C(NCCCn1ccnc1)c1cc(-c2ccc(Br)cc2)nc2ccccc12 [CBK262645]", "CTL2-GFP (C. trachomatis L2/434/Bu, GFP-expressing)", "Condition not met"],
  ["OCC1(CNc2ncc(F)c(N3CCCC3)n2)CCOCC1 [CBK306647]", "CTL2-GFP (C. trachomatis L2/434/Bu, GFP-expressing)", "Condition not met"],
  ["Cc1cc(NS(=O)(=O)c2ccc(NC(=O)CCCOc3ccc(Cl)cc3Cl)cc2)no1 [CBK297145]", "CTL2-GFP (C. trachomatis L2/434/Bu, GFP-expressing)", "Condition not met"],
  ["CCc1nnc(NS(=O)(=O)c2ccc(NC(=S)Nc3ccc(F)cc3)cc2)s1 [CBK050037]", "CTL2-GFP (C. trachomatis L2/434/Bu, GFP-expressing)", "Condition met"],
  ["O=[N+]([O-])c1cc2c(cc1C(Nc1ccccn1)c1cc(Cl)c3cccnc3c1O)OCO2 (stereo not drawn) [CBK267795]", "CTL2-GFP (C. trachomatis L2/434/Bu, GFP-expressing)", "Condition not met"],
  ["O=C(NCCNCCNC(=O)C1(c2ccccc2)CCCC1)C1(c2ccccc2)CCCC1 [CBK017670]", "CTL2-GFP (C. trachomatis L2/434/Bu, GFP-expressing)", "Condition not met"],
  ["Cc1ccc2[nH]c3c(c2c1)CCOC31CCN(Cc2ccccc2-c2ccccc2)CC1 [CBK039915]", "CTL2-GFP (C. trachomatis L2/434/Bu, GFP-expressing)", "Condition met"]
]}

In the following, a different molecule is considered.
Is the reported activity at 1 µM for O=S(=O)(Nc1ncccn1)c1ccc(NC(=S)Nc2ccc3c(c2)OCO3)cc1 [CBK267046] strictly below 90%? Condition met

Sourced from paper PMC12040169
